System: UACC-62
Assay: NCI tumour cell line growth inhibition, 48 h
Active and inactive are the calls of the source. Cut-off read from the data, not from the text of the source: active = GI50 up to about 1.1 µM and inactive = higher.
Response enum: active, inactive

{"columns": ["molecule", "cat"],
 "data": [
  ["Cn1c(=O)[nH]c2[nH]c3ccccc3c2c1=O", "inactive"],
  ["C[C@@H]1CCC2C(C)(C)C(/C=C\\C=O)C3(C)OC213 (stereo partly drawn)", "inactive"],
  ["N#Cc1sc2nc3ccccc3n2c1N", "inactive"],
  ["Cc1ccc(C(=O)N/N=C(\\N=N\\c2cccc(Cl)c2)c2ccc(N(CCC#N)CCC#N)cc2C)cc1", "inactive"],
  ["Nc1ccccc1C(=O)NC(=O)Nc1ccc(Oc2ncc(Br)cn2)c(Cl)c1", "active"],
  ["CCOC(=O)C1=CN/C(=C(/C)C(=O)OC)SC1C(=O)OCC (stereo not drawn)", "inactive"]
]}

In: Entry `COc1cc([C@H]2CC(=O)C[C@H](c3cc(OC)c(OC)c(OC)c3)C23C(=O)c2ccccc2C3=O)cc(OC)c1OC` : call = ?
Out: inactive

In: Entry `O=C1C(Cl)=C(N2CCN(c3ccccn3)CC2)C(=O)c2c(O)ccc(O)c21` : call = ?
Out: active

In: Entry COC(=O)C(=O)C(C(=O)C(=O)Nc1ccc([N+](=O)[O-])cc1C#N)c1nc2ccc([N+](=O)[O-])cc2nc1O (stereo not drawn) : call = ?
Out: inactive

In: Entry `CN(C)Cc1cc(/N=N/c2ccc(Cl)cc2)ccc1O` : call = ?
Out: inactive

In: Entry NC(=O)/N=C1\NC(Cc2ccccc2)C(=O)N1Cc1ccccc1 (stereo not drawn) : call = ?
Out: inactive

In: Entry `CNC(=O)CN(CC(N)=O)C(=O)NC` : call = ?
Out: inactive

In: Entry `O=C(O)Cc1cccc2c(=O)c3cccc([N+](=O)[O-])c3oc12` : call = ?
Out: inactive

###

Test system: SN12C
Experiment: NCI tumour cell line growth inhibition, 48 h
Calls of active or inactive are those of the source. No stated cut-off is given here; in the data, active = GI50 up to about 1.1 µM and inactive = higher.
GI50 overview

Take a look at these entries with their results.
{"columns": ["compound", "quantity", "result"],
 "data": [
  ["COc1cc(N(CCC#N)CCC#N)ccc1C(/N=N/c1cccc([N+](=O)[O-])c1)=N\\NC(=O)c1ccc(C)cc1", "GI50", "> 100 µM (inactive)"],
  ["Cc1oc2c(cc(O)c3cc(O)ccc32)c2cccc1-2", "GI50", "> 100 µM (inactive)"],
  ["O=c1cc(-c2ccccc2)[nH]c2c(Cl)cccc12", "GI50", "46.2 µM (inactive)"],
  ["CC(=O)OCC(OC(C)=O)C(OC(C)=O)C(OC(C)=O)C(C=NN(C(C)=O)S(=O)(=O)c1ccc(/C=C2\\NC(=O)NC2=O)cc1)OC(C)=O (stereo not drawn)", "GI50", "> 100 µM (inactive)"],
  ["COc1cc2c(c(OC)c1OC)-c1ccc(OC)c(=O)cc1C(NC(=O)CCCCCNc1ccc(N=[N+]=[N-])cc1[N+](=O)[O-])CC2 (stereo not drawn)", "GI50", "< 0.01 µM (active)"]
]}

Field GI50 (system: SN12C) for entry COC(=O)/C(=N\NC(=S)NN)C(C(=O)OC)C(=O)C(=O)Nc1cccc(C(F)(F)F)c1 (stereo not drawn) = > 100 µM (inactive)

Field GI50 (system: SN12C) for entry O=[N+]([O-])c1ccc2c(c1)nc(Cc1ccccc1)n2C[C@@H]1CCCN2CCCCC12 (stereo partly drawn) = 48 µM (inactive)

Field GI50 (system: SN12C) for entry O=C(O)C(CS)Nc1c2ccccc2[n+]([O-])c2ccccc12 (stereo not drawn) = > 100 µM (inactive)

Field GI50 (system: SN12C) for entry `O=C(Nc1ccc(Cl)c(Cl)c1)OCCN1c2ccccc2Sc2ccccc21` = > 10 µM (inactive)

Field GI50 (system: SN12C) for entry `O=C1C=C(Nc2ccccc2C(=O)CC(=O)C(=O)Nc2ccc(Cl)cc2)c2ccccc2C1=O` = 12.6 µM (inactive)

Field GI50 (system: SN12C) for entry `CN(C)c1ccc(/C=c2/c3ccccc3n3nc4ccccc4c23)cc1` = 73.6 µM (inactive)

Field GI50 (system: SN12C) for entry `CCOc1cc(NC(C)=O)ccc1C(=O)NNC(=O)c1ccccc1OC(C)=O` = 5.24 µM (inactive)

Field GI50 (system: SN12C) for entry O=C1c2ccccc2CC12Cc1ccc3c(c1C2=O)CCCC3 (stereo not drawn) = 14.1 µM (inactive)

Field GI50 (system: SN12C) for entry Cc1ccc(S(=O)(=O)N2CCN3C(=O)c4ccccc4C32c2ccc(F)cc2)cc1 (stereo not drawn) = 32.7 µM (inactive)

Field GI50 (system: SN12C) for entry N#CC(C(=O)CCC(=O)Nc1ccc(Cl)c(Cl)c1)c1ccccc1 (stereo not drawn) = > 100 µM (inactive)

Field GI50 (system: SN12C) for entry `O=C(CC/C(CC(=O)c1ccc(Br)cc1)=N\O)Nc1ccc(Cl)c(Cl)c1` = > 100 µM (inactive)

Field GI50 (system: SN12C) for entry CC(C)(C)OC(=O)NCCCCC(NC(=O)c1ccccc1)C(N)=O (stereo not drawn) = > 100 µM (inactive)

Field GI50 (system: SN12C) for entry `N#CCCN(CCC#N)CCN(CCN(CCC#N)CCC#N)CCN(CCC#N)CCC#N` = > 100 µM (inactive)

Field GI50 (system: SN12C) for entry `C1=Cc2nc1c(-c1ccncc1)c1ccc([n-]1)c(-c1ccncc1)c1nc(c(-c3ccncc3)c3ccc([n-]3)c2-c2ccncc2)C=C1.[Zn+2]` = > 100 µM (inactive)

Field GI50 (system: SN12C) for entry `CC(=O)NNc1nc(C)c(C(=O)NNC(=O)C(=O)Nc2nc3ccc([N+](=O)[O-])cc3s2)s1` = 68.2 µM (inactive)

Field GI50 (system: SN12C) for entry `[N-]=[N+]=Nc1ccc2c(c1)Sc1ccccc1N2CCCCN1CCN(C(=O)CCNC(=O)Cc2ccc(C(=O)c3ccccc3)cc2)CC1` = 7.26 µM (inactive)

Field GI50 (system: SN12C) for entry `C/C(=N\NC(C)(C)C)c1sc(-c2nc(C)c(/C(C)=N/NC(C)(C)C)s2)nc1C` = > 100 µM (inactive)

Field GI50 (system: SN12C) for entry C=CCOc1ccc(C2C(C(=O)OCC)C(=O)CC(C)(O)C2C(=O)OCC)cc1OC (stereo not drawn) = > 100 µM (inactive)

###

System: HCC 2998
Assay: NCI tumour cell line growth inhibition, 48 h
Active and inactive are the calls of the source. Cut-off read from the data, not from the text of the source: active = GI50 up to about 1.1 µM and inactive = higher.
quantity: GI50

Take a look at these entries with their results.
{"columns": ["compound", "quantity", "result"],
 "data": [
  ["O=C(CCc1n[nH]c(=S)o1)Nc1cc(Cl)c(Cl)cc1Cl", "GI50", "> 100 µM (inactive)"],
  ["C[C@]12C=CC(=O)C=C1CC[C@@H]1[C@@H]2CC[C@]2(C)OC(=O)CC[C@@H]12", "GI50", "372 µM (inactive)"]
]}

// O=[N+]([O-])C1=Cc2c(O)ccc(O)c2C2c3ccccc3NC12 (stereo not drawn) : GI50 value = 7.52 µM (inactive)

###

Tested on: NCI/ADR-RES
Test: NCI tumour cell line growth inhibition, 48 h
Activity calls are given as the source filed them. Cut-off read from the data, not from the text of the source: active = GI50 up to about 1.1 µM and inactive = higher.
GI50 overview

{"columns": ["compound", "result"],
 "data": [
  ["O=C1CC(Nc2ccccc2)c2c(Cl)sc(Cl)c21 (stereo not drawn)", "2.42 µM (inactive)"],
  ["O=C(Nc1nc(C23CC4CC(CC(C4)C2)C3)cs1)c1cc2cc(Cl)ccc2oc1=O", "> 100 µM (inactive)"],
  ["Nc1ccc(I)cn1", "> 100 µM (inactive)"],
  ["CC(C)(C)[Si](C)(C)OCCOCn1cc(F)c(=O)[nH]c1=O", "> 100 µM (inactive)"],
  ["O=C(CCCN1CCC2(CC1)CC(=O)N(N1CCOCC1)C2=O)c1ccccc1", "> 100 µM (inactive)"],
  ["COc1cc(/N=N\\c2cccc(S(=O)(=O)O)c2)c(C)cc1/N=N\\c1ccc(/C=C/c2ccc(/N=[N+](/[O-])c3ccc(/C=C/c4ccc(/N=N\\c5cc(C)c(/N=N/c6cccc(S(=O)(=O)O)c6)cc5OC)cc4)c(S(=O)(=O)O)c3)cc2S(=O)(=O)O)cc1", "> 100 µM (inactive)"]
]}

Field GI50 (system: NCI/ADR-RES) for entry `N#CC1(c2ccccc2)CCN(C2(c3ccccc3)CCCCC2)CC1` = > 100 µM (inactive)

Field GI50 (system: NCI/ADR-RES) for entry COc1ccc(C(OCC2OC(n3ccc(NC(=O)c4ccccc4)nc3=O)C(O)C2O)(c2ccccc2)c2ccccc2)cc1 (stereo not drawn) = 2.37 µM (inactive)

###

Tested on: HCT-116
Experiment: NCI tumour cell line growth inhibition, 48 h
Active and inactive are the calls of the source. Rule as the data show it: active = GI50 up to about 1.1 µM and inactive = higher.
quantity: GI50

Take a look at these entries with their results.
{"columns": ["compound", "quantity", "result"],
 "data": [
  ["O=C1C=C[C@@]23C[C@@H](NC4=C2C2=NCCc5c[nH]c(c52)C4=O)SC3=C1 [1-DEBROMODISCORHABDIN B]", "GI50", "1.75 µM (inactive)"],
  ["Nc1ccc(I)cn1", "GI50", "> 100 µM (inactive)"],
  ["O=S(=O)(/C=C/C=C/S(=O)(=O)c1ccccc1)c1ccccc1", "GI50", "1.27 µM (inactive)"],
  ["N=C(/C=C/c1ccc(-c2cn3cc(/C=C/C(=N)N4CCOCC4)ccc3n2)cc1)N1CCOCC1", "GI50", "> 100 µM (inactive)"],
  ["COc1cc2c(/C=C3/C(=O)Nc4ccc(Cl)cc43)c(Cl)[nH]c2cc1C", "GI50", "0.794 µM (active)"],
  ["COc1cc2c(cc1O)[C@H](C)C(c1ccccc1OC)O2 (some centres not stated)", "GI50", "3.86 µM (inactive)"],
  ["CC(=O)O[C@H]1CCC2[C@@H]3CCC4=C(O)c5nocc5C[C@]4(C)C3CC[C@@]21C (some centres not stated)", "GI50", "> 100 µM (inactive)"],
  ["COC(=O)CC(c1ccccc1)C(C#N)(OP1(=O)OC(c2ccccc2)C(C)N1C)c1ccccc1 (configuration not stated)", "GI50", "48.4 µM (inactive)"],
  ["Cn1c(=O)c2ccc(-c3ccc(Br)cc3)nc2n(C)c1=O", "GI50", "68.9 µM (inactive)"],
  ["CCCN(CCC)C(=S)Sc1nc(C)nc(N2CCN(c3nc(C)nc(SC(=S)N(CCC)CCC)c3[N+](=O)[O-])CC2)c1[N+](=O)[O-]", "GI50", "2.03 µM (inactive)"]
]}

Field GI50 (system: HCT-116) for entry `c1ccc(CSC(SCc2ccccc2)c2ccc3c(c2)OCO3)cc1` = > 10 µM (inactive)

Field GI50 (system: HCT-116) for entry `N/N=C1/C2CN3CCN(C2)CC1(c1ccc([N+](=O)[O-])cc1)C3` = > 100 µM (inactive)
